# credit: patent US20250206841A1

# target_of_assay: T1, human Trop-2 expressed on cell surface (human, UniProt P09758 27-323)
# T1 sequence (looked up): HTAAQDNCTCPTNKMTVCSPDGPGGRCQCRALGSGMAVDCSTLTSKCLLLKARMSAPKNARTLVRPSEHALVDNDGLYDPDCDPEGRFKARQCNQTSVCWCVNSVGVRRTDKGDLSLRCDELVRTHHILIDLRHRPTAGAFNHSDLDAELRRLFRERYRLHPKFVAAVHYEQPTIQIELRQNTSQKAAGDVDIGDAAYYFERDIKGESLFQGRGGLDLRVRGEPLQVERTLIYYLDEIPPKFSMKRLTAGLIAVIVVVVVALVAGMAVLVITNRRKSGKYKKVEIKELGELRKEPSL
# protocol: cell-based or functional assay
readout_type: Internalization %, MCF-7, 0.25 µg/ml, 4 h (%)
Respond with the bare value in %.

Solved entries (count: 4):
| binder | result_value |
| --- | --- |
| 10A9-2 (antibody, V domains shown) VH: QSLEESGGDLVQPGASLTLTCKASGFDLNNYAMLWVRQAPGKGLEWIGSIYISGGTTYFASWATGRFAISKTSSTTVTLQMTSLTAADTATYFCARDDGTTSYYLNLWGPGTLVTVSS VL: YDMTQTPASVSAAVGGTVTIKCQASEDIYSLLAWYQQKPGQPPKLLIYGASNLESGVPSRFKGSGSGTEYTLTISDLEADDAATYYCQQAYTIGNIDNAFGGGTEVVVK | 48 |
| 1D10 (antibody, V domains shown, Rabbit-derived clone; LEM construct: VH + rabbit IgG CH1 + human IgG1 CH2-CH3) VH: QEQLKESGGGLVQPGGSLTLSCKASGFDFNYYGVSWVRQAPGKGLEWIGYIYPAYHNTYYATWVNGRFTISSHNAQNTLYLQLNTLTAADTATYFCARDAGSTDYNLNLWGPGTLVTVSS VL: DVVMTQTPASVEVAVGGTVTIKCQASEDIESYLAWYQQKPGQPPRLLIYEASKLASGVSSRFSGGGYGTDFTLTISGVECADAATYYCHQALTIGNVDNPFGGGGEVVVK | 49 |
| 9F7 (antibody, V domains shown, Rabbit-derived clone; LEM construct: VH + rabbit IgG CH1 + human IgG1 CH2-CH3) VH: QEQLKESGGGLVQPGGSLTLSCKASGFDFNNYGVSWVRQAPGKGLEWIGYIYPAYHNTYYATWVNGRFTISSHNAQNTLYLQLNTLTAADTATYFCARDTGSTDYNFNLWGPGTLVTVSS VL: DVVMTQTPASVEVAVGGTVTIKCQASEDIESYLAWYQQKPGQPPKLLIYEASKLASGVSSRFSGGGYGTEFTLTISGVECADAATYYCQQALTVGNVDNPFGGGSEVVVK | 36 |
| 9D7-2 (antibody, V domains shown) VH: QSLEESGGDLVQPGASLTLTCKASGFDLNNYSILWVRQAPGKGLEWIGSIYISGGSTYYANWAKGRFAISKTSSTTVTLQMTSLTAADTATYFCARDDGTASYYLNLWGPGTLVTVSS VL: YDMTQTPASVSEPVGGTVTIKCQASEDIYKLLAWYQQKPGQPPKLLIYAASDLESGVPSRFKGRGSGTDYTLTISDLEAADAATYYCQQAYTIGNIDNSFGGGTEVVVK | 57 |

Next binder, please.
Per the records, this binder ( 5D4-1 (antibody, V domains shown) VH: QQLEESGGGLVKPEGSLTLTCKGSGFDFSGTYWMWWVRQAPGKGLEWIAPIYVGSGSSTYYASWAKGRFTISSTSSTAVTLQATSLTAADTATYFCARGATNNVFMNYFNLWGPGTLVTVSS VL: FEMTQTPSSVSEPVGGTVTIKCQASEDISSNLGWYQQKPGQPPKLLIYGASTLASGVPSRFKGSGSGTEFTLTISDLEPADAATYYCQTSYYIDDGVNGFGGGTEVVVK ) has Internalization %, MCF-7, 0.25 µg/ml, 4 h equal to 62
